- tgt: acetylcholine receptor
- test-summary: SPR, receptor immobilized on CM5 chip, peptide 10 uM
property-name: Binding affinity (RU)

Below, each entry is followed by its recorded Binding affinity (RU) result.
>  <binder>
KKHHAR [6mer-1-868]

>  <Binding affinity (RU)>
14

$$$$
>  <binder>
RVQYKK [6mer-2-418]

>  <Binding affinity (RU)>
121

$$$$
>  <binder>
KRLLYK [6mer-1-274]

>  <Binding affinity (RU)>
135

$$$$
>  <binder>
KKETFR [6mer-1-912]

>  <Binding affinity (RU)>
33

$$$$

[P] KKTANK [6mer-1-888]
[Q] KRGLRR [6mer-1-270]
## Task Kindly identify the item with the lower Binding affinity (RU) figure among these two: P and Q Write down the label attached to your selection.
## Result P

[P] RKPAWR [6mer-1-907]
[Q] RKDHIK [6mer-1-919]
## Task Kindly identify the item with the lower Binding affinity (RU) figure among these two: P and Q Write down the label attached to your selection.
## Result Q

[I] KKINGK [6mer-1-906]
[II] RRWFCK [6mer-1-313]
## Task Kindly identify the item with the lower Binding affinity (RU) figure among these two: I and II Write down the label attached to your selection.
## Result I
(I: 30 RU, II: 148 RU)

[A] KKHKPR [6mer-1-903]
[B] RKWIYK [6mer-1-326]
## Task Kindly identify the item with the lower Binding affinity (RU) figure among these two: A and B Write down the label attached to your selection.
## Result A
(A: 37 RU, B: 136 RU)

[I] KRPTIR [6mer-1-910]
[II] KRPMDK [6mer-1-880]
[III] KKLYRR [6mer-1-294]
[IV] RKMAFR [6mer-1-891]
## Task Sort (4 binders) by Binding affinity (RU): min first. # the answer lists labels in the order requested
## Result IV, II, I, III
(IV: 13 RU, II: 21 RU, I: 42 RU, III: 123 RU)

[1] KRYTKR [6mer-1-884]
[2] RLVRKK [6mer-2-453]
## Task // which entry has the larger Binding affinity (RU) value, 1 or 2 ? Write down the label attached to your selection.
## Result 2

[P] RKFNWR [6mer-1-924]
[Q] KSQRKR [6mer-2-441]
## Task Kindly identify the item with the lower Binding affinity (RU) figure among these two: P and Q Write down the label attached to your selection.
## Result P

[a] KQIYRR [6mer-2-408]
[b] KKPAMR [6mer-1-882]
## Task // which entry has the larger Binding affinity (RU) value, a or b ? Write down the label attached to your selection.
## Result a

Attribution: patent US20250011363A1
